List of kon values.
molecular target: T1, Histidine-tagged mfCD40 protein (mfCD40-His), Macaca fascicularis (Macaca fascicularis, UniProt G7PG38 21-193); assay: SPR, Biacore T200; antibody on Protein A chip, mfCD40-His injected; 1:1 fit
T1 construct: not shown: histidine tag
Your answer should be a plain number; it is taken to be in M⁻¹ s⁻¹.

binder	unit label	observed result
6A7-H3K3-IgG4 (antibody, V domains shown, Humanized) VH: QVQLVQSGAEVKKPGASVKVSCKASGYTFISYYIYWVRQAPGQGLEWIGGINPRNGGTNFNEKFKSRATLTVDTSISTAYMELSRLRSEDTAVYYCTRHGNGVYWGQGTTVTVSS VL: DVVMTQSPLSLPVTLGDPASISCRSSQSLLHSNGNTYLHWYQQRPGQSPNHLIYQVSNRFSGVPDRFSGSGSGTDFTLKISRVEAEDVGVYFCSQTTHVPWTFGGGTKLEIK	M⁻¹ s⁻¹	231000
4H6-H4K2-IgG4 (antibody, V domains shown, Humanized) VH: EVQLQESGPGLVKPSQTLSLTCTVSGDSVSSGYWNWIRKFPGKKLEYMGFISYSGSTYYTPSLKSRITISRDTSKNQFSLKLSSVTAADTAVYFCARFRRYDDGVDYWGQGTLVTVSS VL: DIQMTQSPSAMSASVGDRVTITCRASHEISGYLSWIQQKPGGTIKRLINAASTLASGVPSRFSGSRSGTEFTLTISSLQPEDFADYYCLQYSSYPWTFGGGTKLEIK	M⁻¹ s⁻¹	568000
4H6-H3K2-IgG4 (antibody, V domains shown, Humanized) VH: EVQLQESGPGLVKPSQTLSLTCTVSGDSVSSGYWNWIRKHPGKKLEYMGFISYSGSTYYTPSLKSRITISRDTSKNQFSLKLSSVTAADTAVYFCARFRRYDDGVDYWGQGTLVTVSS VL: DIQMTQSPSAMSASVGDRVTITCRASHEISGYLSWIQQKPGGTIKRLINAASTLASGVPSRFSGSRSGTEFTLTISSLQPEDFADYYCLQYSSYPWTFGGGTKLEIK	M⁻¹ s⁻¹	570000

// returns reported kon for input 6A7-H4K2-IgG4 (antibody, V domains shown, Humanized) VH: QVQLVQSGAEVKKPGASVKLSCKASGYTFISYYIYWVKQAPGQGLEWIGGINPRNGGTNFNEKFKSRATLTVDTSISTAYMELSRLRSEDTAVYYCTRHGNGVYWGQGTTLTVSS VL: DVVMTQSPLSLPVTLGQPASISCRSSQSLLHSNGNTYLHWYQQRPGQSPNHLIYQVSNRFSGVPDRFSGSGSGTDFTLKISRVEAEDVGVYFCSQTTHVPWTFGGGTKVEIK 199000
